Measured values drawn from the supplement of paper PMC9170038 for this set.

Tested on: K4 kissing-loop RNA reporter
Assay: apparent KD of K4 kissing-loop reporter; higher = weaker reporter binding
Conditions: Eterna round: R107; input ligand: FMN 200 uM
So I've got a bunch of sequences here, and I need their apparent KD of K4 kissing-loop reporter values.
Quick reminder: number only, in nM, skip the unit.

For K4 kissing-loop RNA reporter, give apparent KD of K4 kissing-loop reporter of the listed sequence: UGAUACCAGACGGCCGCCACUUCCGCAAGUCAAAGACUUGCCAAGGGAAUCGUCCAGUGAUGUUGGAGGACCGGGUCUGGUAUCU [FiskerMod 4 - Jieux - Exclusion - Tryptophan B]
939

Retrieve apparent KD of K4 kissing-loop reporter on K4 kissing-loop RNA reporter; query AUGUUUUAUAAACUCAUGGUUUCGACAGAUACCAGCUUCGAGAGGAGCCCUUGGCAGCUGCAUGAGUGAUGUUCAUGUACGAAGA [KL-XTheoA7]
374

Tell me apparent KD of K4 kissing-loop reporter of CCGGUUCCAACGCUGACUGAAGAACAUGAUACCAGUCGAGGACUCGACCCUUGGCAGCAUUAUAGAGUGAUGUUCGCUUCAGAAA [theeternabot_sameState_KL_Theo_A_15] when tested on K4 kissing-loop RNA reporter.
157

Enter recorded apparent KD of K4 kissing-loop reporter with K4 kissing-loop RNA reporter for CAUGGAGUGAUGCUCCAUGAUCGGGCUUGGCAGGAUAUGGGAUUUUCCAGAAGGGUCGAUCCCAGCGAGUGAUGUUCGCUGGUCU [Exclusion FMN A GF 26] here.
106

Answer with apparent KD of K4 kissing-loop reporter of CAAGGACGGCCGUAGGCAUACCGUCGAUUCAAGGAUAUCAAGAGAAUGAGAAGGUGAAGUUUAUACAGUGAUGUUGCUAUAGAGA [theeternabot_sameState_KL_FMN_A_6] measured for K4 kissing-loop RNA reporter.
133

Send back K4 kissing-loop RNA reporter apparent KD of K4 kissing-loop reporter of AAGUACACGAUAGUGUACACCUAGUGAUGUUAGGAUAUGCAGAUAUGCAGAAGGAGCAAGUCAUCUGACAAUAGUCGGAUGACAA [FmnAX 7 #OpenEnded #K4Early] only.
315

Report its apparent KD of K4 kissing-loop reporter with K4 kissing-loop RNA reporter as the test system: AAGUGUGUGGCGGCCGCCACUAGAAUCCAGUGAUGUUGGAGUUAUCAUAUAAUUGAUAAUCAACAUAGGACCGGGCCAUAUAGAA [Same State - Tryptophan B (Freestyle 6)]
602

Give K4 kissing-loop RNA reporter apparent KD of K4 kissing-loop reporter for the following sequence: UAAUAUCCGUCGGCCGCCACUCACCAGUGAUGUUGGAGGAGUGAUGUUCCACGAGUGAUGUUCGAGAGGACCGGGACGGACGAUG [6th]
134

Lab note: record apparent KD of K4 kissing-loop reporter of AAGCAGUCCCUUGUUGUCAUCGAAGAUGAACGAGGACCGGUACGGCCGCCACUCGGAGUGAUGUUCCGAAGGCUGCAAAAUAAAA [MatMod 20 - Jieux - Exclusion - Tryptophan A] tested on K4 kissing-loop RNA reporter.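 Further: bound reporter read as fluorescence of individual clusters on recovered sequencing chips by microscopy, with normalized cluster intensities fitted with a binding model.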
109

Provide K4 kissing-loop RNA reporter apparent KD of K4 kissing-loop reporter reading for GAUUGGCGGACGGCCGCCACUCGGACGAGUCACAGUGAUGUUGUGGUUUGCCAGUCGACUUCAUCGAGGACCGGGUUUGUCGGGC [Exclusion Tryptophan B GF 21] .
592

Give K4 kissing-loop RNA reporter apparent KD of K4 kissing-loop reporter for the following sequence: GCUAUGGUAGGAAGGAGCGCUGCCUUGUUUUUACGAGUGAUGUUCGGAAGCAGGGCGUUAAAGCAGGUAGGUCGCCUACUAUAGC [Arginine B K4 22]
220

====

For each entry below, report its apparent KD of MS2 coat protein value.
System: MS2 coat protein
Experiment: apparent KD of MS2 coat protein; higher = weaker reporter binding
Settings: Eterna round: R107; input ligand: theophylline 20 uM
# value in nM; strip the unit string

Please indicate apparent KD of MS2 coat protein recorded for UGUACCAUGUCGGCCGCCACUCAUGAUAAACAUGAGGAUCACCCAUGUAGCGUCAAAGACGCUAUGAGGACCGGGACAUGGUACU [TryBS Zipper 2 #StaticStem #Zipper]
49.2

Read the entry ACGAUAGGACACGAGGAUCACCCGUGUGAUACCAGCCUGGAAACAGGCCCUUGGCAGCACAAAUACUCCAAUAACCUAUCGAAUA [TheoAX 10 #MicroSwitchBubble #AlternativeMS2] and write its reported apparent KD of MS2 coat protein.
183

Note down apparent KD of MS2 coat protein recorded for GGGAGGGAGGCGGCCGCCACUGAUUUUCAUAUAUAUAUAACAUGAGGAUCACCCAUGUAGAUAUGCAGGACCGGGCCUUUUUUUU [aaaI]
30.1

Please give measured apparent KD of MS2 coat protein of the following entry: ACAUUAGCCACGGCCGCCACUGCUUUAUGAUUAUAAGGAUUAAUGAACAUGAGGAUCACCCAUGUCAGGACCGGGUGCCUACCAU [SSTryp B #4]
42.3

For GCUGUGAAGUCGGCCGCCACUGGUUAGUUUUACCUCAUGUAACAUGAGGAUCACCCAUGUAAUUUCAGGACCGGGACAACAGCAA [JR_ExcTryptoB_Sub017] , write its apparent KD of MS2 coat protein.
588

Provide measured apparent KD of MS2 coat protein value, entry: CGAUGAUGAAGGGAUACCAGAAAUGGUAUUCCUUUAUUUCUUACAUGAGGAUCACCCAUGUUCCCUUGGCAGCUUUUUAUCAUCG [ETHB #6]
82.6

Write down apparent KD of MS2 coat protein measured for item AAUAAUAAGGCGGCCGCCACUAAACAUGAGGAUCACCCAUGUCUCGAGCGCAUACAUAAGGGAUGUAGGACCGGGCCAAUAAUAA [Exclusion - Tryptophan B (Freestyle 1)]
25.7

# return recorded apparent KD of MS2 coat protein for entry UUUACAUGAGGAUCACCCAUGUGCCAUGAUACCAGACAUGAAAAUGUCCCUUGGCAGCAUGAGUGAUUCAUCCGAAAGGAUGUUU [Jehnice]
146

State its apparent KD of MS2 coat protein for this sequence: ACAUGAGGAUCACCCAUGUUGAACUACCAUCGAGGACCGGUACGGCCGCCACUCGCGUUCUCCUUAGCAUCAAGGUCCGCGAAAC [theeternabot_exclusion_MS2_Trp_A_1]
15.3

Return value of apparent KD of MS2 coat protein for input CAGAGACAUGAGGAUCACCCAUGUUGAGAUACCAGCUUGGUAUCGAGCCCUUGGCAGCUCGCCCAUCGUCUAUAUCAGCCUGAGC [theeternabot_sameState_MS2_Theo_A_40] , no commentary.
18.9

Look up and report measured apparent KD of MS2 coat protein for this entry: AAUAUCAUGAGGAUCACCCAUGAAGAAGAUACCAGAGUGAUGAUCCUCCCUUGGCAGCUUAACGCUGAUUGAUUACAAUCAGCGA
128

Return the recorded apparent KD of MS2 coat protein value; entry: GAGGUCCUGAGAGAUACCAGUGAGGCCACAUGAGGAUCACCCAUGUCCCUCACUCCGGCCCACCCUUGGCAGCUCGGAAGGUAAA [Exclusion Theophylline B GF 23]
29.7

Tell me measured apparent KD of MS2 coat protein for AAAUCAGUCUGAAGGAGCGUCACAUGAGGAUCACCCAUGUACAUGAGGAUCACCCAUGUGUGACAGGUAGGUCGCAGAGGAUACC [Exclusion Arginine B GF 4] please.
168

Return reported apparent KD of MS2 coat protein. Input sequence: GCUAGUGGCAGAAGGAGCGAGGCCCGCGCACAUAACAUGAGGAUCACCCAUGUGGCGAGACCUCAGGUAGGUCGCUGCCACUAGC [EAB NP+V2 #1]
25.8

Complete the entry with apparent KD of MS2 coat protein for GACAUGAGGAUCGAUACCAGCGACAUGAGGAUCACAUGAGGAUCACCCAUGUGUAGUAUACGCCCUUGGCAGCGAACAUGAGGAU [Same State Theophylline B 3]
71.2

Output apparent KD of MS2 coat protein of AUAUCUUCCACGGCCGCCACUGAAUGGUGCCCAAGGUCGAUCGCAGACAUGAGGAUCACCCAUGUCAGGACCGGGUGGUACUACG [theeternabot_exclusion_MS2_Trp_B_23]
16.5

Please give the documented apparent KD of MS2 coat protein of UUGAUUACCCAAGCGUGAUGGUCCUAGGAACGAGGACCGGUACGGCCGCCACUCGCAAGCAAACAUGAGGAUCACCCAUGUUUAU [theeternabot_exclusion_MS2_Trp_A_19]
15.9

Specify reported apparent KD of MS2 coat protein for the sequence shown: UAUACAUGAGGAUCACCCAUGUGCCAUGAUACCAGACAUGAAAAUGUCCCUUGGCAGCAUGGGAGAUGUAUAGCGGGAAACCCGA [Turany]
198

Using the record for CGGUAGGUAGGUCGAUAUCUACCCGUAGAAGGAGCGUAAGAAAAUACAGGUAGGUCGCUACGGAACAUGAGCAUCAGCCAUGUCC [SSArg A #12-Alt Ms2] , state its measured apparent KD of MS2 coat protein.
20.6

Please look at this sequence and report its apparent KD of MS2 coat protein: UGGGUAGAAUAGAUAGAUAGAUAAACUGAAGGAGCGAGAAUAAACUCAGGUAGGUCGCAGACAUGAGGAUCACCCAUGUAGAUGG [Same State Arginine A GF15]
87.2

Note down apparent KD of MS2 coat protein recorded for AAGAUACUCUGAAGGAGCGGCAUAAAACAUGAGGAUCACCCAUGUGCGCGGGUGUAAUUAUGCCAGGUAGGUCGCAGAGUAUUUA [#03 Same State - Arginine B]
373

Report apparent KD of MS2 coat protein for GAUAUGGAAACAUGUCAGAUCCUUACCGGUCGAGGACCGGUACGGCCGCCACUCGAAAACGAUGUACAUGAGGAUCACCCAUGUA [Ex Tryptophan A 19]
16.2

// Input: AAGAGACAUGAGGAUCACCCAUGUGUUGAUACCAGAAACACAAAGUUCCCUUGGCAGCAAAUCUGAGCGAAACGAUCUAGAGCGC [theeternabot_sameState_MS2_Theo_A_30] . Output its apparent KD of MS2 coat protein only.
84.9
